The reported numbers originate from ChEMBL document CHEMBL3804799.

# Species: Cavia porcellus
# test name: Selectivity ratio of Ki for Sigma2 receptor in Dunkin Hartley guinea pig brain membrane to Ki for Sigma1 receptor in Dunkin Hartley guinea pig brain membrane
Hi! Just check whether Ratio Ki is below 20. Below gives rule met, equal or above gives rule not met.

smiles_data=O=c1ccc(OCCCN2CCCCC2)nn1-c1ccc(Cl)cc1 group="rule not met"
smiles_data=O=c1ccc(OCCCN2CCCC2)nn1-c1ccccc1 group="rule met"
smiles_data=CC(C)N(CCCOc1ccc(=O)n(-c2ccccc2)n1)C(C)C group="rule met"
smiles_data=O=c1c2ccccc2c(OCCCN2CCCCC2)nn1-c1ccc(Cl)c(Cl)c1 group="rule met"
smiles_data=CC1CCN(CCCOc2ccc(=O)n(-c3cccc(Cl)c3Cl)n2)CC1 group="rule not met"
smiles_data=CC1CCN(CCCOc2ccc(=O)n(-c3ccc(F)cc3)n2)CC1 group="rule not met"

* * *

# Species: Cavia porcellus
# test name: Selectivity ratio of Ki for Sigma2 receptor in Dunkin Hartley guinea pig brain membrane to Ki for Sigma1 receptor in Dunkin Hartley guinea pig brain membrane
Listed below: Ratio Ki values for each entry.
measured parameter: Ratio Ki

smiles_data=CN1CCN(CCCOc2ccc(=O)n(-c3ccccc3)n2)CC1 endpoint_result=11.9
smiles_data=Cc1ccc(-n2nc(OCCCN3CCCCC3)ccc2=O)cc1 endpoint_result=18.6
smiles_data=O=c1ccc(OCCCN2CCCCC2)nn1-c1ccccc1 endpoint_result=50.2
smiles_data=CN1CCCN(CCCOc2ccc(=O)n(-c3ccccc3)n2)CC1 endpoint_result=16.8
smiles_data=CC1CCN(CCCOc2ccc(=O)n(-c3ccc(Cl)cc3Cl)n2)CC1 endpoint_result=31.4
smiles_data=O=c1c2c(c(OCCCN3CCCCC3)nn1-c1ccc(Cl)c(Cl)c1)CCCC2 endpoint_result=8.9
smiles_data=CC1CCN(CCCOc2ccc(=O)n(-c3ccc(F)c(Cl)c3)n2)CC1 endpoint_result=163
smiles_data=O=c1ccc(OCCCN2CCCCC2)nn1-c1ccc(Cl)cc1Cl endpoint_result=32.3
smiles_data=O=c1ccc(OCCCN2CCCCC2)nn1-c1cccc(Cl)c1Cl endpoint_result=33.6
smiles_data=CC1CCN(CCCOc2ccc(=O)n(-c3ccc4ccccc4c3)n2)CC1 endpoint_result=10.8
smiles_data=CC1CCN(CCCOc2ccc(=O)n(-c3ccc(Cl)c(Cl)c3)n2)CC1 endpoint_result=348

* * *

# test name: Cmax in Sprague-Dawley rat at 80 mg/kg, po administered through gavage by LC-MS/MS analysis
# Type: ADME, organism-based
# Parameters: dose 80 mg/kg, route oral
# recorded conditions: in vivo
measured parameter: Cmax (ng/mL)

smiles_data=O=c1ccc(OCCCN2CCCCC2)nn1-c1ccc(Cl)c(Cl)c1 measured_parameter=Cmax endpoint_result=2920

* * *

# assayed target: Sigma non-opioid intracellular receptor 1 (Cavia porcellus)
# test name: Displacement of [3H]-(+)-pentazocine from Sigma1 receptor in Dunkin Hartley guinea pig brain membrane after 180 mins by liquid scintillation counting analysis
pKi: −log10 of the molar value.
measured parameter: pKi

smiles_data=O=c1ccc(OCCCN2CCCCC2)nn1-c1cc(Cl)cc(Cl)c1 assayed_target="Sigma non-opioid intracellular receptor 1 (Cavia porcellus)" endpoint_result=7.52
smiles_data=O=c1ccc(OCCCN2CCCC2)nn1-c1ccccc1 assayed_target="Sigma non-opioid intracellular receptor 1 (Cavia porcellus)" endpoint_result=7.45
smiles_data=O=c1ccc(OCCCN2CCOCC2)nn1-c1ccccc1 assayed_target="Sigma non-opioid intracellular receptor 1 (Cavia porcellus)" endpoint_result=7.18
smiles_data=O=c1ccc(OCCCN2CCCCC2)nn1-c1ccc(F)c(F)c1 assayed_target="Sigma non-opioid intracellular receptor 1 (Cavia porcellus)" endpoint_result=8.10
smiles_data=CC1CCN(CCCOc2ccc(=O)n(-c3cc(Cl)cc(Cl)c3)n2)CC1 assayed_target="Sigma non-opioid intracellular receptor 1 (Cavia porcellus)" endpoint_result=7.37
smiles_data=O=c1ccc(OCCCN2CCCCC2)nn1-c1ccc2ccccc2c1 assayed_target="Sigma non-opioid intracellular receptor 1 (Cavia porcellus)" endpoint_result=7.13
smiles_data=CN1CCN(CCCOc2ccc(=O)n(-c3ccccc3)n2)CC1 assayed_target="Sigma non-opioid intracellular receptor 1 (Cavia porcellus)" endpoint_result=7.50
smiles_data=O=c1ccc(OCCCN2CCCCC2)nn1-c1cc(Cl)ccc1Cl assayed_target="Sigma non-opioid intracellular receptor 1 (Cavia porcellus)" endpoint_result=7.35
smiles_data=CC1CCN(CCCOc2ccc(=O)n(-c3cccc(Cl)c3Cl)n2)CC1 assayed_target="Sigma non-opioid intracellular receptor 1 (Cavia porcellus)" endpoint_result=7.26
smiles_data=CC1CCN(CCCOc2ccc(=O)n(-c3ccc4ccccc4c3)n2)CC1 assayed_target="Sigma non-opioid intracellular receptor 1 (Cavia porcellus)" endpoint_result=7.08
smiles_data=CC1CCN(CCCOc2ccc(=O)n(-c3ccc(F)cc3)n2)CC1 assayed_target="Sigma non-opioid intracellular receptor 1 (Cavia porcellus)" endpoint_result=7.70
smiles_data=CN(C)CCCOc1ccc(=O)n(-c2ccccc2)n1 assayed_target="Sigma non-opioid intracellular receptor 1 (Cavia porcellus)" endpoint_result=6.97

* * *

# assayed target: Sigma non-opioid intracellular receptor 1 (Cavia porcellus)
# test name: Displacement of [3H]-(+)-pentazocine from Sigma1 receptor in Dunkin Hartley guinea pig brain membrane after 180 mins by liquid scintillation counting analysis
measured parameter: Ki (nM)

smiles_data=O=c1ccc(OCCCN2CCCCC2)nn1-c1cccc(Cl)c1Cl measured_parameter=Ki limit_operator== endpoint_result=48
smiles_data=O=c1ccc(OCCCCN2CCCCC2)nn1-c1ccccc1 measured_parameter=Ki limit_operator== endpoint_result=124
smiles_data=O=C1CCN(CCCOc2ccc(=O)n(-c3ccccc3)n2)CC1 measured_parameter=Ki limit_operator== endpoint_result=580
smiles_data=CC1CCN(CCCOc2ccc(=O)n(-c3ccc(Cl)c(Cl)c3)n2)CC1 measured_parameter=Ki limit_operator== endpoint_result=5
smiles_data=O=c1ccc(OCCCN2CCCCC2)nn1C1CCCC1 measured_parameter=Ki limit_operator=> endpoint_result=2000
smiles_data=O=c1c2ccccc2c(OCCCN2CCCCC2)nn1-c1ccc(Cl)c(Cl)c1 measured_parameter=Ki limit_operator== endpoint_result=140
smiles_data=Cc1c(OCCCN2CCCCC2)nn(-c2ccc(Cl)c(Cl)c2)c(=O)c1C measured_parameter=Ki limit_operator== endpoint_result=66.6
smiles_data=O=c1ccc(OCCCN2CCCCC2)nn1-c1ccc(F)cc1 measured_parameter=Ki limit_operator== endpoint_result=17
smiles_data=CCN(CC)CCCOc1ccc(=O)n(-c2ccccc2)n1 measured_parameter=Ki limit_operator== endpoint_result=96.5
smiles_data=O=c1ccc(OCCCN2CCCCC2)nn1-c1ccccc1 measured_parameter=Ki limit_operator== endpoint_result=21.4
smiles_data=CC1CCN(CCCOc2ccc(=O)n(-c3cc(Cl)ccc3Cl)n2)CC1 measured_parameter=Ki limit_operator== endpoint_result=60
smiles_data=Cc1ccc(-n2nc(OCCCN3CCC(C)CC3)ccc2=O)cc1 measured_parameter=Ki limit_operator== endpoint_result=61.6
smiles_data=CC1CCN(CCCOc2ccc(=O)n(-c3ccccc3)n2)CC1 measured_parameter=Ki limit_operator== endpoint_result=28
smiles_data=CC1CCN(CCCOc2ccc(=O)n(-c3ccc(F)c(F)c3)n2)CC1 measured_parameter=Ki limit_operator== endpoint_result=15
smiles_data=O=c1ccc(OCCN2CCCCC2)nn1-c1ccccc1 measured_parameter=Ki limit_operator=> endpoint_result=2000
smiles_data=CC1CCN(CCCOc2ccc(=O)n(-c3ccc(Cl)cc3Cl)n2)CC1 measured_parameter=Ki limit_operator== endpoint_result=35
smiles_data=CCN1CCN(CCCOc2ccc(=O)n(-c3ccccc3)n2)CC1 measured_parameter=Ki limit_operator== endpoint_result=40.1
smiles_data=CC1CCN(CCCCOc2ccc(=O)n(-c3ccccc3)n2)CC1 measured_parameter=Ki limit_operator== endpoint_result=143

* * *

# assayed target: Sigma non-opioid intracellular receptor 1 (Cavia porcellus, UniProt Q60492)
# Sequence (Q60492 whole entry): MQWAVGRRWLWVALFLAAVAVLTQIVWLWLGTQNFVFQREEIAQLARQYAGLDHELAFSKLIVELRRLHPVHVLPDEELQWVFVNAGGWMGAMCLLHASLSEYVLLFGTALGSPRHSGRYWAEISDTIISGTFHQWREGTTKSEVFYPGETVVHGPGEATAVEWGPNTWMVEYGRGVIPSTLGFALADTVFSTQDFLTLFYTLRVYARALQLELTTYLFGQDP
# test name: Displacement of [3H]-(+)-pentazocine from Sigma1 receptor in Dunkin Hartley guinea pig brain membrane after 180 mins by liquid scintillation counting analysis
measured parameter: Ki

compound=CC(C)N(CCCOc1ccc(=O)n(-c2ccccc2)n1)C(C)C measured_parameter=Ki endpoint_result="98.1 nM"
compound="CC1CC(C)CN(CCCCOc2ccc(=O)n(-c3ccccc3)n2)C1 (stereo unspecified)" measured_parameter=Ki endpoint_result="222 nM"
compound=Cc1ccc(-n2nc(OCCCN3CCCCC3)ccc2=O)cc1 measured_parameter=Ki endpoint_result="69 nM"
compound=O=c1c2c(c(OCCCN3CCCCC3)nn1-c1ccc(Cl)c(Cl)c1)CCCC2 measured_parameter=Ki endpoint_result="104 nM"
compound=O=c1ccc(OCCCN2CCCCC2)nn1-c1ccc(Cl)cc1 measured_parameter=Ki endpoint_result="9.8 nM"
compound=O=c1ccc(OCCCN2CCCCC2)nn1-c1ccc(Cl)cc1Cl measured_parameter=Ki endpoint_result="25 nM"
compound=CC1CCN(CCCOc2ccc(=O)n(-c3ccc(F)c(Cl)c3)n2)CC1 measured_parameter=Ki endpoint_result="10 nM"
compound=CC1CCN(CCCOc2ccc(=O)n(-c3ccc(Cl)cc3)n2)CC1 measured_parameter=Ki endpoint_result="9.5 nM"
compound=CN1CCCN(CCCOc2ccc(=O)n(-c3ccccc3)n2)CC1 measured_parameter=Ki endpoint_result="30.3 nM"
compound=O=c1ccc(OCCCN2CCCCC2)nn1-c1ccc(F)c(Cl)c1 measured_parameter=Ki endpoint_result="10 nM"
compound="CC1CC(C)CN(CCCOc2ccc(=O)n(-c3ccccc3)n2)C1 (stereo unspecified)" measured_parameter=Ki endpoint_result="46 nM"
